Give measured pKd for each item. Keep answers brief.
Biological target: T1, Recombinant EBOV GP without transmembrane domain (Zaire ebolavirus, strain of GP not …, UniProt Q05320)
T1 construct: also called recombinant GP; EBOV rGPdTM; source: bought: IBT Bioservices
T1 sequence (Q05320 whole entry, looked up, the tested form may be a part): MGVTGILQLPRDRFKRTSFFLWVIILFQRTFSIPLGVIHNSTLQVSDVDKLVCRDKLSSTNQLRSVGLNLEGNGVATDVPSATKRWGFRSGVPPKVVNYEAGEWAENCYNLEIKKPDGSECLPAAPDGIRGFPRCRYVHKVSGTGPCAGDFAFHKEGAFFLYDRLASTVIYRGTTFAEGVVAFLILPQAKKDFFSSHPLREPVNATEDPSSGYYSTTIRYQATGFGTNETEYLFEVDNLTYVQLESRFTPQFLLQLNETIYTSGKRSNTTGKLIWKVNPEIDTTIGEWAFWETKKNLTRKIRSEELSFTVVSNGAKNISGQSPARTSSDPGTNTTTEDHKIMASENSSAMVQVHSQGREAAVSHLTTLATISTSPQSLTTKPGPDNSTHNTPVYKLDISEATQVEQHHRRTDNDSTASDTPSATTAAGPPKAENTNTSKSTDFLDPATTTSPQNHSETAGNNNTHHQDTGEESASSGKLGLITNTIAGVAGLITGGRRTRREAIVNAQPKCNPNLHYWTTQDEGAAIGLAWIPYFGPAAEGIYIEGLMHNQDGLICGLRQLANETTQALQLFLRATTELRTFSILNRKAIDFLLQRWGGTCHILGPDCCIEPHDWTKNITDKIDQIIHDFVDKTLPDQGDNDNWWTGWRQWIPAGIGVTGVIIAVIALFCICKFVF
Experiment: SPR
Details: both partners purified
FYI, pKd means -log10 of a concentration in mol per litre.

Form field pKd, entry EBOV-GP-H7-neg+ (VHH, also called EBOV-H7-neg+; Bt-sdAb-neg+) VHH: DVQLVESGGGLVQAGGSLRLSCAASSGTFSSYTMGWFRQAPGKERELVCRLSQSLTTLYADSVKGRFTCSRDNAENTVYLQMNSLKPEDTGVYYCAAHPGTYGSAWLISPHDYAYWGQGTQVTVSS : 7.40

Measured pKd of EBOV-GP-G6-neg+ (VHH, also called Bt-sdAb-neg+) VHH: DVQLVESGGGLVQAGGSLRISCAASGGALSDYNMGWFRQAPGKEREFVCVVTWSGGSTRYADSVNGRFTCSRDNAKNTVYLQMNSLKPEDTAVYYCAAAPLTPFQSLGDMKAYNYWGQGTQVTVSS : 7.36

Recorded pKd (binder EBOV-GP-A8-neg+ (VHH) VHH: EVQLVESGGGLVQAGDSLQLSCAAPGRPVRTYTMGWFRQAPGKEREFVCANNWRGTRYAGSVRGRFSCSRDNSKNTVYLQMNSLKPEDTAVYYCACAVTADLLLSGNYFRGDDYDYWGQGTQVTVSS ): 9.02

Data point: EBOV-GP-A8-fneg+ (VHH, also called Bt-sdAb-neg+) VHH: EVQLVESGGGLVQAGDSLQLSCAAPGRPVRTYTMGWFRQAPGKEREFVCANNWRGTRYAGSVRGRFSCSRDNSKNTVYLQMNSLKPEDTAVYYCASAVTADLLLSGNYFRGDDYDYWGQGTQVTVSS ; pKd = 9.16
